# TARGET_OR_TEST_SYSTEM: BLMcore K869A K870A (Homo sapiens, UniProt P54132 636-1298, K869A;K870A)
# Sequence (P54132 636-1298 K869A/K870A): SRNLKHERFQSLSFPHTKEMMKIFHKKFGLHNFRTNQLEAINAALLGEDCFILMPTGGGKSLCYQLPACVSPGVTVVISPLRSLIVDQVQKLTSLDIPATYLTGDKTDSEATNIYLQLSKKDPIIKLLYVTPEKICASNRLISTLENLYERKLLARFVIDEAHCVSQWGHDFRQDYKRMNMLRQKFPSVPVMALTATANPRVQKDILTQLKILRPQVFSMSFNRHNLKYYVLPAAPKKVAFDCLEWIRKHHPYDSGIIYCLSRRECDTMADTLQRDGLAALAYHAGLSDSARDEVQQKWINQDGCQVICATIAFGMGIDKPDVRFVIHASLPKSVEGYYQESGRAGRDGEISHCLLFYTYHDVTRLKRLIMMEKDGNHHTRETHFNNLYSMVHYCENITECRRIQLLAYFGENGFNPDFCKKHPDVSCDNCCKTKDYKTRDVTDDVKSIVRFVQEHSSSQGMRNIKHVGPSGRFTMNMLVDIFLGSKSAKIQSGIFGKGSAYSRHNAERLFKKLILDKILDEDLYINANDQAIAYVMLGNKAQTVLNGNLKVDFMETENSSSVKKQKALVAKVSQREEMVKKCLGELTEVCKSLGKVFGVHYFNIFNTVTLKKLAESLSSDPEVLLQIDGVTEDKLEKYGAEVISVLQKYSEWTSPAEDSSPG
# PROCEDURE_SUMMARY: EMSA; 5 mM MgCl2; smear; estimated apparent KD; 50 mM Tris-HCl pH 7.5, 50 mM KCl, 5 mM MgCl2, 1 mM DTT, 0.1 mg/mL BSA, 40 nM DNA, 30 min room temperature; 5% gel in TBE + 100 mM KCl at 4 C
# CONDITION_LABEL: protein: recombinant; (HisTrap purified); label: 3'-FAM; intramolecular G4 (folded in 100 mM KCl) with 3' T-rich ssDNA tail
pKd: −log10 of the molar value.
RECORDED_ENDPOINT: pKd

Incoming: Name the recorded pKd of the binder listed here: GGGTTAGGGTTAGGGTTAGGGTTTTTTTTTT (structured_DNA) [G4 DNA with 3' ssDNA overhang (FAM-oRC96)]
Outgoing: ~6.20
